This section presents molecules with their documented pKi values.
Biological target: Cloned Human Serotonin Receptor, Subtype 7 (h5HT7) (Homo sapiens, UniProt P34969)
Construct: purchased PerkinElmer 6120512; host or cells: CHO cells
Sequence (P34969 whole entry): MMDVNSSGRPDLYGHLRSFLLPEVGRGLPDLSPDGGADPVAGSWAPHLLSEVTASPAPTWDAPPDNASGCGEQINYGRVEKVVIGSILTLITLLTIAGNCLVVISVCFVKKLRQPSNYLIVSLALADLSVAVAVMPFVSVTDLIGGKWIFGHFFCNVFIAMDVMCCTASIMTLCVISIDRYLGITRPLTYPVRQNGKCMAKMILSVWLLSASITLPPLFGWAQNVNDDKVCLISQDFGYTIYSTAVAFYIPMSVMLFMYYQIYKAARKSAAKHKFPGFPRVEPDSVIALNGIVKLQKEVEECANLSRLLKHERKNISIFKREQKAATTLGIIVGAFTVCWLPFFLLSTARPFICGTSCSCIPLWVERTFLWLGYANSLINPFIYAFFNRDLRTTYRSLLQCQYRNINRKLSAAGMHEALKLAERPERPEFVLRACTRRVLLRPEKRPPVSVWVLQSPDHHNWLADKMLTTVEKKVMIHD
Experiment: Radioligand binding assay, [125I]LSD, cloned human 5-HT7 receptor expressed in CHO cells (Flashplate)
Recall that pKi is obtained by taking minus log10 of the concentration measured in molar.

INSERT INTO measurements (molecule, tested_on, metric, test_result) VALUES
  ('CCn1nc(C)c(C)c1-c1ccc(OC)c(CCN(C)C)c1 [Example 28]', 'Cloned Human Serotonin Receptor, Subtype 7 (h5HT7) (Homo sapiens, UniProt P34969)', 'pKi', 7.09),
  ('COc1ccc(-c2c(C)c(C)nn2C(C)C)cc1CCN(C)C [Example 31]', 'Cloned Human Serotonin Receptor, Subtype 7 (h5HT7) (Homo sapiens, UniProt P34969)', 'pKi', 7.08),
  ('CCc1c(C)nn(C)c1-c1ccc(OC)c(CCN(C)C)c1 [Example 3]', 'Cloned Human Serotonin Receptor, Subtype 7 (h5HT7) (Homo sapiens, UniProt P34969)', 'pKi', 6.22);

Briefly, pKi measured for COc1ccc(-c2c(C)c(C)nn2C)cc1CCN(C)C [Example 9] : 6.95

* * *

Molecular target: Cloned Human Serotonin Receptor, Subtype 7 (h5HT7) (Homo sapiens, UniProt P34969)
Construct: purchased PerkinElmer 6120512; host or cells: CHO cells
Assay: Radioligand binding assay, [125I]LSD, cloned human 5-HT7 receptor expressed in CHO cells (Flashplate)
Details: h5HT7 expressed in CHO cells; radioligand [125I]LSD 0.82 nM; nonspecific binding with clozapine; triplicate determinations; read-out: 5-HT7 Ki
Procedure: Radioligand binding assays were performed using the Cloned Human Serotonin Receptor, Subtype 7 (h5HT7), expressed in CHO cells, coated on Flashplate (Basic FlashPlate Cat.: SMP200) from PerkinElmer (Cat.: 6120512). […] Nonspecific binding was determined with 50 µM of Clozapine. […] The radioactivity were quantified by liquid scintillation spectrophotometry (Wallac 1450 Microbeta Trilux) with a count delay of 4 minutes prior to counting and a counting time of 30 seconds per well. […]
This section presents compounds with their documented pKi values.
Recall that pKi is obtained by taking minus log10 of the concentration measured in molar.

INSERT INTO assay_data (smiles_structure, test_result) VALUES
  ('COc1ccc(-c2c(-c3ccccc3)c(C)nn2-c2ccccc2)cc1CCN(C)C', 6.35),
  ('CCn1nc(C)c(C)c1-c1ccc(O)c(CCN(C)C)c1', 6.99),
  ('Cc1nn(CC(F)(F)F)c(-c2ccc(O)c(CCN(C)C)c2)c1C', 6.49);

Test item Cc1nn(C)c(-c2ccc(O)c(CCN(C)C)c2)c1C ; Cloned Human Serotonin Receptor, Subtype 7 (h5HT7) (Homo sapiens, UniProt P34969); reported pKi was 6.99

Test item COc1ccc(-c2c(C)c(C)nn2CC(F)(F)F)cc1CCN(C)C ; Cloned Human Serotonin Receptor, Subtype 7 (h5HT7) (Homo sapiens, UniProt P34969); reported pKi was 6.84

* * *

Biological target: Cloned Human Serotonin Receptor, Subtype 7 (h5HT7) (Homo sapiens)
Construct: purchased PerkinElmer 6120512; host or cells: CHO cells
Experiment: Radioligand binding assay, [125I]LSD, cloned human 5-HT7 receptor expressed in CHO cells (Flashplate)
Conditions: h5HT7 expressed in CHO cells; radioligand [125I]LSD 0.82 nM; nonspecific binding with clozapine; triplicate determinations; read-out: 5-HT7 Ki
metric: pKi
Recall that pKi is obtained by taking minus log10 of the concentration measured in molar.

INSERT INTO results (smiles_structure, test_result) VALUES
  ('CCc1c(C)nn(C)c1-c1cccc(CCN(C)C)c1', 6.22),
  ('COc1ccc(-c2c(C)c(C)nn2-c2ccccc2)cc1CCN(C)C', 6.41),
  ('Cc1nn(C(C)C)c(-c2cccc(CCN(C)C)c2)c1C', 6.52),
  ('Cc1nn(C)c(-c2cccc(CCN(C)C)c2)c1C', 6.58),
  ('Cc1nn(-c2ccccc2)c(-c2ccc(O)c(CCN(C)C)c2)c1C', 6.21);

Briefly, pKi measured for Cc1nn(CC(F)(F)F)c(-c2cccc(CCN(C)C)c2)c1C : 6.28

Briefly, pKi measured for Cc1nn(C(C)C)c(-c2ccc(O)c(CCN(C)C)c2)c1C : 6.82

* * *

This section presents molecules with their documented Ki values.
Molecular target: Cloned Human Serotonin Receptor, Subtype 7 (h5HT7) (Homo sapiens)
Construct: purchased PerkinElmer 6120512; host or cells: CHO cells
Test: Radioligand binding assay, [125I]LSD, cloned human 5-HT7 receptor expressed in CHO cells (Flashplate)
Conditions: h5HT7 expressed in CHO cells; radioligand [125I]LSD 0.82 nM; nonspecific binding with clozapine; triplicate determinations; read-out: 5-HT7 Ki
All answers are understood in nM, so give the number only.

INSERT INTO results (smiles_structure, metric, test_result) VALUES
  ('CNCCc1cc(-c2c(C)c(C)nn2C)ccc1O', 'Ki', 23.5),
  ('CCc1c(C)nn(C)c1-c1ccc(O)c(CCN(C)C)c1', 'Ki', 577);

Now for a further molecule.
Briefly, Ki measured for COc1ccc(-c2c3c(nn2-c2ccccc2)CCCC3)cc1CCN(C)C : 420
